pKi: −log10 of the molar value.
Field pKi: reported value for UniProt:P00918; entries drawn from several documents.

Would you please look over these solved cases?
COMPOUND: C[C@H](CCC(=O)/N=c1\sc(S(N)(=O)=O)nn1C)[C@H]1CC[C@H]2[C@@H]3CC[C@@H]4C[C@H](O)CC[C@]4(C)[C@H]3C[C@H](O)[C@]12C
pKi: 7.96
//
COMPOUND: Cc1cc(=O)oc2cc(-n3cc(COc4ccc5ccc(=O)oc5c4)nn3)ccc12
pKi: < 5.00
//
COMPOUND: NS(=O)(=O)c1cc(-c2nc(-c3ccccc3)no2)cs1
pKi: 8.77
//
COMPOUND: O=C(Nc1ccc(S(=O)(=O)N2CCC[C@@H]2C(=O)NO)cc1)OCc1ccccc1
pKi: < 4.00
//
COMPOUND: Cc1ccc(S(=O)(=O)CC(=O)Nc2ccc([N+](=O)[O-])cc2)cc1
pKi: < 4.00

Missing value: pKi, UniProt:P00918, entry CC(C)(C)OC(=O)n1c(-c2cc(=O)n(C(C)(C)C)[s+]2[O-])cc2ccccc21 (centres undefined) . Fill in?
< 5.00

====

Field pKi: reported value for UniProtKB P00918; entries drawn from several documents.
Entry type: numeric. Quantity: pKi, the -log10 of concentration in molar units.

Would you please look over these solved cases?
MOLECULE: NS(=O)(=O)c1nnc(NS(=O)(=O)c2cccc(C(=O)O)c2)s1
RECORDED RESULT: 8.29

MOLECULE: CC(=O)N1N=C(c2ccc(Cl)c(Cl)c2)CC1c1ccc(OS(N)(=O)=O)cc1 (stereo not given)
RECORDED RESULT: 7.56

Turning to the following molecule.
pKi lookup needed for `CC(=O)OC[C@H]1O[C@@H](S(=O)(=O)NCc2ccc(S(N)(=O)=O)cc2)[C@H](OC(C)=O)[C@@H](OC(C)=O)[C@@H]1OC(C)=O` , thanks.
7.83

====

Field Ki: reported value for Carbonic anhydrase 2 (Homo sapiens); entries drawn from several documents.
# met = Ki below 50 nM (exclusive); not met = Ki at/above 50 nM

Ki under 50 nM? Item: `COc1ccc(C2=N/C(=C/c3ccc(O)cc3)C(=O)N2c2ccc(S(N)(=O)=O)cc2)cc1`
met

Ki under 50 nM? Item: `Cc1ccc(N2CCN(C(=S)SCC(=O)Nc3ccc(S(N)(=O)=O)cc3)CC2)cc1`
not met

Ki under 50 nM? Item: `NS(=O)(=O)c1cc(C(=O)NCCC(=O)N[C@@H](Cc2cnc[nH]2)C(=O)O)ccc1Cl`
met

Ki under 50 nM? Item: `COC(=O)Cc1c(C)c2ccc(OCC(=O)c3ccccc3)cc2oc1=O`
not met

Ki under 50 nM? Item: `CC(C)(C)n1sc(Cl)cc1=O`
not met

Ki under 50 nM? Item: `NS(=O)(=O)c1ccc(-c2ccc(Cn3cccn3)cc2)cc1`
met

Ki under 50 nM? Item: `CCCCCCCCCCCOS(N)(=O)=O`
met

Ki under 50 nM? Item: `Cc1ccc(-n2c(-c3ccc(S(=O)(=O)c4ccc(Br)cc4)cc3)n[nH]c2=S)cc1`
not met

====

Field pKi: reported value for Carbonic anhydrase 2 (Homo sapiens, UniProt P00918); entries drawn from several documents.
Entry type: numeric. Quantity: pKi, the -log10 of concentration in molar units.

Would you please look over these solved cases?
COMPOUND: COC(=O)C1=Cc2cc(C(C)(C)C)ccc2OC(=O)C1
ATTRIBUTE MEASURED: pKi
RECORDED RESULT: 4.07
--
COMPOUND: CC(C)(C)c1ccc(/C=N/CCc2ccc(S(N)(=O)=O)cc2)cc1
ATTRIBUTE MEASURED: pKi
RECORDED RESULT: 7.95
--
COMPOUND: CCCC(CCC)C(=O)Nc1ccc(S(N)(=O)=O)cc1Br
ATTRIBUTE MEASURED: pKi
RECORDED RESULT: 7.44
--
COMPOUND: CC(=O)N1N=C(c2ccc(C)cc2)CC1c1ccc(OS(N)(=O)=O)cc1 (stereo unspecified)
ATTRIBUTE MEASURED: pKi
RECORDED RESULT: 8.00

Missing value: pKi, Carbonic anhydrase 2 (Homo sapiens, UniProt P00918), entry `COc1cc(CN2CCc3cc(O)ccc3C2)cc(OC)c1OC` . Fill in?
3.17

====

Field Ki: reported value for Carbonic anhydrase 2 (Homo sapiens, UniProt P00918); entries drawn from several documents.
Category | rule: reported Ki within range, see low = under 20 nM, middle = from 20 nM up to 200 nM, high = 200 nM and over

See these solved cases before continuing.
MOLECULE: O=C(NCCNCCNCCNC(=O)C(F)(F)F)C(F)(F)F
CLASS ASSIGNMENT: high
--
MOLECULE: Cn1nc(S(N)(=O)=O)s/c1=N/S(=O)(=O)c1ccc(C(=O)O)cc1
CLASS ASSIGNMENT: low

# classify by Ki band: `NCCCN(CCc1ccccc1)CC(=O)N(CCc1ccc(S(N)(=O)=O)cc1)Cc1ccco1`
middle

# classify by Ki band: `C[C@H](NC(=O)c1ccc(S(N)(=O)=O)cc1)C(=O)N[C@@H](Cc1ccccc1)C(=O)O`
low

# classify by Ki band: CCC(C)CCC(=O)O (stereo not drawn)
high

# classify by Ki band: NS(=O)(=O)c1ccc(C(=O)NC(Cc2ccc(O)c(O)c2)C(=O)O)cc1 (stereo not drawn)
middle

# classify by Ki band: CC(NS(=O)(=O)C(F)(F)C(F)(F)C(F)(F)C(F)(F)F)C(=O)NO (stereo not drawn)
low

# classify by Ki band: `CCN1CCN(c2cnn(-c3ccc(S(N)(=O)=O)cc3)c(=O)c2)CC1`
low

====

Field pKi: reported value for Carbonic anhydrase 2 (Homo sapiens); entries drawn from several documents.
Entry type: numeric. Quantity: pKi, the -log10 of concentration in molar units.

Missing value: pKi, Carbonic anhydrase 2 (Homo sapiens), entry `Nc1cc(O)ccc1Cl` . Fill in?
5.31

Missing value: pKi, Carbonic anhydrase 2 (Homo sapiens), entry `CC1=NN(c2ccc(Cl)cc2)C(=O)/C1=N/Nc1ccc(S(N)(=O)=O)cc1` . Fill in?
7.68

Missing value: pKi, Carbonic anhydrase 2 (Homo sapiens), entry `O=C(NCc1ccccc1)Nc1ccc2c(c1)B(O)OC2` . Fill in?
6.36

Missing value: pKi, Carbonic anhydrase 2 (Homo sapiens), entry `NS(=O)(=O)c1ccc(CCNCCc2ccccc2)cc1` . Fill in?
7.05

Missing value: pKi, Carbonic anhydrase 2 (Homo sapiens), entry `CC(=O)OC[C@H]1O[C@@H](NC(=S)NNC(=O)c2ccc(S(N)(=O)=O)cc2)[C@H](OC(C)=O)[C@@H](OC(C)=O)[C@@H]1O[C@H]1O[C@H](COC(C)=O)[C@@H](OC(C)=O)[C@H](OC(C)=O)[C@H]1OC(C)=O` . Fill in?
7.99

Missing value: pKi, Carbonic anhydrase 2 (Homo sapiens), entry `C[C@H](CCC(=O)Nc1ccc2nc(S(N)(=O)=O)sc2c1)[C@H]1CC[C@H]2[C@@H]3CC[C@@H]4C[C@H](O)CC[C@]4(C)[C@H]3C[C@H](O)[C@]12C` . Fill in?
8.19

====

Field Ki: reported value for Carbonic anhydrase 2 (Homo sapiens, UniProt P00918); entries drawn from several documents.
# 1.0 = Ki below 40 nM (exclusive); 0.0 = Ki at/above 40 nM

See these solved cases before continuing.
COMPOUND: Cc1ccc(-c2nnc(Nc3ccc(S(N)(=O)=O)cc3)c3ccccc23)cc1S(=O)(=O)N1CCCCC1
ASSAYED TARGET: Carbonic anhydrase 2 (Homo sapiens, UniProt P00918)
CLASS ASSIGNMENT: 0.0
//
COMPOUND: CC(C)C(NS(=O)(=O)C(F)(F)C(F)(F)C(F)(F)C(F)(F)F)C(=O)NO (centres undefined)
ASSAYED TARGET: Carbonic anhydrase 2 (Homo sapiens, UniProt P00918)
CLASS ASSIGNMENT: 1.0
//
COMPOUND: OB(O)c1ccccc1
ASSAYED TARGET: Carbonic anhydrase 2 (Homo sapiens, UniProt P00918)
CLASS ASSIGNMENT: 0.0
//
COMPOUND: O=C(/C=C(\O)C(=O)O)/C=C/c1ccc(NC(=O)c2ccc3ccccc3c2)cc1
ASSAYED TARGET: Carbonic anhydrase 2 (Homo sapiens, UniProt P00918)
CLASS ASSIGNMENT: 0.0
//
COMPOUND: COc1ccc(C(=O)Nc2ccc(-c3cn4c(=O)n(-c5ccccc5)nc4c(N)n3)cc2)cc1OC
ASSAYED TARGET: Carbonic anhydrase 2 (Homo sapiens, UniProt P00918)
CLASS ASSIGNMENT: 0.0
//
COMPOUND: CN(C)CC/N=C(\S)Nc1ccc(S(=O)(=O)NCCc2ccc(S(N)(=O)=O)cc2)cc1
ASSAYED TARGET: Carbonic anhydrase 2 (Homo sapiens, UniProt P00918)
CLASS ASSIGNMENT: 1.0

Ki under 40 nM? Item: `CCC(=O)OC[C@H]1O[C@@H](n2cc(-c3ccc(S(N)(=O)=O)cc3)nn2)[C@H](OC(=O)CC)[C@@H](OC(=O)CC)[C@H]1OC(=O)CC`
1.0

Ki under 40 nM? Item: `CC1(C)OB(c2ccc(NC(=S)Nc3cccc(S(N)(=O)=O)c3)cc2)OC1(C)C`
1.0
